biological target: orexin-1 (Homo sapiens (Human)); test: Intracellular calcium measurement (FLIPR), CHO cells expressing human orexin-1 receptor, 3 nM orexin-A; assay type: cell-based; details: CHO cells expressing human orexin-1 receptor, FLIPR, 3 nM orexin-A; geometric mean if determined several times; read-out: IC50 OX1
Sequence (O43613 whole entry): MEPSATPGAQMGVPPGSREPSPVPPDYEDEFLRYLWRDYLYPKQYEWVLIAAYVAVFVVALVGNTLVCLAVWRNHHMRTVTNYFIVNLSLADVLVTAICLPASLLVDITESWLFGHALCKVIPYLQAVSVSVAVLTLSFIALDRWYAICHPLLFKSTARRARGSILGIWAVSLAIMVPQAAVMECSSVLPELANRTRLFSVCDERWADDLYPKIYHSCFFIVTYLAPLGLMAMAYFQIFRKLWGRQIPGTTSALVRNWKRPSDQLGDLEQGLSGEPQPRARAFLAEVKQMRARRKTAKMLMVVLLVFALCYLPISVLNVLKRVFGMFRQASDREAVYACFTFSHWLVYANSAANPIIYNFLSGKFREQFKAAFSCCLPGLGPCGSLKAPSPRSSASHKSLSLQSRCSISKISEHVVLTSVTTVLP
Could you please report measured IC50 for the items listed next?
One number for each entry, in nM.

Study these solved cases before continuing.
COc1cc(C(=O)N2CCC[C@H]2c2nc(-c3cccc(Cl)c3C)no2)c(-c2ncccn2)cc1C; 177
O=C(c1cccc(Cl)c1-n1nccn1)N1CCC[C@H]1c1nc(-c2ccccc2OC(F)(F)F)no1; 531
Cc1c(Cl)cccc1-c1noc([C@@H]2CCCN2C(=O)c2cc(C(F)(F)F)ccc2-n2nccn2)n1; 568

get_value(item= `Cc1ccc(-c2ccccc2)c(C(=O)N2CCC[C@H]2c2nc(-c3cccc(Cl)c3C)no2)c1` , readout=IC50) returns 49

====

Task for the reader: assign each of the following compounds its reported IC50.
target: human orexin-2 receptor (Homo sapiens (Human), UniProt O43614); experiment: Intracellular calcium measurement (FLIPR), CHO cells expressing human orexin-2 receptor, 3 nM orexin-A; format: cell-based; conditions: CHO cells expressing human orexin-2 receptor, FLIPR, 3 nM orexin-A; geometric mean if determined several times; read-out: IC50 OX2
Sequence (O43614 whole entry): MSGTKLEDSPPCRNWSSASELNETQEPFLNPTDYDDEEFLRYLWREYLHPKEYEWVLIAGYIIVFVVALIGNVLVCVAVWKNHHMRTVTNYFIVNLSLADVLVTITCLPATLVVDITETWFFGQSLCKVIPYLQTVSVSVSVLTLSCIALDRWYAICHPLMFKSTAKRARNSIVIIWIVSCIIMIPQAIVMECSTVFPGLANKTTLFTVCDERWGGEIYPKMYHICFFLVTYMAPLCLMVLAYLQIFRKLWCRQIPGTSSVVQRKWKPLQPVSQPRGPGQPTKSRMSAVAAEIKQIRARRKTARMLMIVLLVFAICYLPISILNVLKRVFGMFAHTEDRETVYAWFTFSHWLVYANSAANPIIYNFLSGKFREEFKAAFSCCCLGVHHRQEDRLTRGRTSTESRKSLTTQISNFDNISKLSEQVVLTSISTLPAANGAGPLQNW
Enter the number, and then the unit.

Before answering, review these 5 worked examples.
Cc1noc(-c2ccccc2C(=O)N2CCC[C@H]2c2nc(-c3cccc(Cl)c3C)no2)n1 [compound 267]; 0.177 µM
COc1c(F)cccc1-c1nc([C@@H]2CCCN2C(=O)c2ccccc2-n2nccn2)no1 [compound 334]; 0.012 µM
Cc1ccc(-n2nccn2)c(C(=O)N2CCC[C@H]2c2noc(-c3n[nH]c4ccccc34)n2)c1 [compound 312]; 0.089 µM
COc1cc(-c2noc([C@@H]3CCCN3C(=O)c3cc(C)ccc3-n3nccn3)n2)ccn1 [compound 32]; 0.955 µM
COc1cc(C(=O)N2CCC[C@H]2c2noc(-c3cccc(OC)c3C)n2)c(-n2nccn2)cc1C [compound 358]; 0.01 µM

// for each compound in input: emit IC50
1. CCOc1c(F)cccc1-c1nc([C@@H]2CCCN2C(=O)c2cc(OC)ccc2-n2nccn2)no1 [compound 326]
2. COc1cc(C(=O)N2CCC[C@H]2c2noc(-c3cccc(F)c3OC)n2)c(-n2nccn2)cc1Cl [compound 368]
3. COc1cc(C(=O)N2CCC[C@H]2c2noc(-c3ccccc3OC(F)(F)F)n2)c(-n2nccn2)cc1Cl [compound 375]
4. O=C(c1cc(Cl)ccc1-n1nccn1)N1CCC[C@H]1c1nc(-c2ccccc2OC(F)F)no1 [compound 186]
5. Cc1ccc(-n2nccn2)c(C(=O)N2CCC[C@H]2c2nnc(-c3ccccc3)o2)c1 [compound 439]
6. CCc1ccccc1-c1nnc([C@@H]2CCCN2C(=O)c2cc(C)ccc2-n2nccn2)[nH]1 [compound 512]
7. Cc1cc(C(=O)N2CCC[C@@]2(C)c2nnc(-c3cccc(Cl)c3C)[nH]2)c(-n2nccn2)cc1C [compound 553]

*A*
1. 0.003 µM
2. 0.001 µM
3. 0.006 µM
4. 0.017 µM
5. 1.41 µM
6. 0.08 µM
7. 0.006 µM

====

target: orexin-1 (Homo sapiens (Human)); experiment: Intracellular calcium measurement (FLIPR), CHO cells expressing human orexin-1 receptor, 3 nM orexin-A; assay type: cell-based; details: CHO cells expressing human orexin-1 receptor, FLIPR, 3 nM orexin-A; geometric mean if determined several times; read-out: IC50 OX1
assay_metric: pIC50
Numbers only, as −log10 of the molar value.

Answered cases to consult:
COc1cc(C)cc(-c2nc([C@@H]3CCCN3C(=O)c3cc(C)ccc3-n3nccn3)no2)c1 [compound 409]; 7.35
Cc1ccc(-n2nccn2)c(C(=O)N2CCC[C@H]2c2nc(-c3cccc(Cl)c3C)no2)c1 [compound 23]; 7.40
COc1cc(C(=O)N2CCC[C@H]2c2noc(-c3cccc(Cl)c3C)n2)c(-n2nccn2)cc1Cl [compound 367]; 7.70
COc1ccc(-c2ccccc2)c(C(=O)N2CCC[C@H]2c2nc(-c3ccccc3OC(F)(F)F)no2)c1 [compound 152]; 8.05

List the reported pIC50 of each compound below.
1. CCOc1ccccc1-c1cnc([C@@H]2CCCN2C(=O)c2ccc(C)cc2-n2nccn2)[nH]1 [compound 518]
2. CCOc1ncccc1-c1nnc([C@@H]2CCCN2C(=O)c2ccc(Cl)cc2-n2nccn2)[nH]1 [compound 481]

*A*
1: 8.70; 2: 7.59

# return pIC50 for each item in the list
1. COc1ncccc1-c1cc([C@@H]2CCCN2C(=O)c2cc(C)ccc2-n2nccn2)on1 [compound 426]
2. COc1cc(C(=O)N2CCC[C@H]2c2nc(-c3cccc(F)c3OC)no2)c(-n2nccn2)cc1OC [compound 208]

*A*
6.38
6.65
